Listing of entries alongside the reported Ki.
target: Carbonic anhydrase 12 (Homo sapiens, UniProt O43570); experiment: Inhibition of human recombinant carbonic anhydrase 12 preincubated with enzyme for 1 hr prior to testing by phenol red-based stopped-flow CO2 hydration assay
Sequence (O43570 whole entry): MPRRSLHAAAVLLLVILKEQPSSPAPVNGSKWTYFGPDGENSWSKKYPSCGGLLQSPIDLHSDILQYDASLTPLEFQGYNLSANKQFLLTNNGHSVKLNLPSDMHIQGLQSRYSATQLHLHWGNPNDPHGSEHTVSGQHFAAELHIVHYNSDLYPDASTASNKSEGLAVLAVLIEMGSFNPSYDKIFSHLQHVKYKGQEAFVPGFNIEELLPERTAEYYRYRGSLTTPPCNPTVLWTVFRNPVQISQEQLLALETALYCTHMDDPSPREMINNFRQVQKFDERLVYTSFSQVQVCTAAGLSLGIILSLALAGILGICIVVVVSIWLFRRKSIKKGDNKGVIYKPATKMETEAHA
Numbers only here, please. The scale is nM.

These recorded examples may help you get a feel for the data.
NS(=O)(=O)c1ccc(OP(=O)(O)c2ccccc2)cc1	30.8
C#CCO[P@@](=O)(Oc1ccc(S(N)(=O)=O)cc1)c1ccccc1	49.2

Let us examine a further case.
q: Complete the entry with Ki for NS(=O)(=O)c1ccc(OP(=O)(Oc2ccccc2)c2ccccc2)cc1 (racemic)
a: 24.6

---

molecular target: Carbonic anhydrase 5A, mitochondrial (Homo sapiens); test: Inhibition of human recombinant carbonic anhydrase 5A preincubated with enzyme for 1 hr prior to testing by phenol red-based stopped-flow CO2 hydration assay
Sequence (P35218 whole entry): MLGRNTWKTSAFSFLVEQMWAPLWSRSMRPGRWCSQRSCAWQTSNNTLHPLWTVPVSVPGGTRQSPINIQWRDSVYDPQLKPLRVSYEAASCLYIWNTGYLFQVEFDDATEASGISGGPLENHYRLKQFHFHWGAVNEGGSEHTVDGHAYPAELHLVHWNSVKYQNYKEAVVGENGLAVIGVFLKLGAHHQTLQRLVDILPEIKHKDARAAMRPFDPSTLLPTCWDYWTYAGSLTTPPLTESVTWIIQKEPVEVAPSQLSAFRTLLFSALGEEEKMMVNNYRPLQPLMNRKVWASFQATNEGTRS
QUANTITY MEASURED: pKi
Remember, pKi is on a log scale: it is -log10 of the molar concentration.

CN1CCN(P(=O)(Oc2ccc(S(N)(=O)=O)cc2)c2ccccc2)CC1 (racemic)	6.78
CCN(CC)P(=O)(Oc1ccc(S(N)(=O)=O)cc1)c1ccccc1 (racemic)	6.97
NS(=O)(=O)c1ccc(OP(=O)(Oc2ccccc2)c2ccccc2)cc1 (racemic)	6.33
NS(=O)(=O)c1ccc(OP(=O)(SCc2ccccc2)c2ccccc2)cc1 (racemic)	6.82
C#CCOP(=O)(Oc1ccc(S(N)(=O)=O)cc1)c1ccccc1 (racemic)	7.09
NS(=O)(=O)c1ccc(OP(=O)(c2ccccc2)N2CCCC2)cc1 (racemic)	7.11

q: Report pKi, nothing else, for this compound: `C#CCO[P@](=O)(Oc1ccc(S(N)(=O)=O)cc1)c1ccccc1`
a: 6.97

q: Name the recorded pKi of the compound listed here: NP(=O)(Oc1ccc(S(N)(=O)=O)cc1)c1ccccc1 (racemic)
a: 7.38

q: Please indicate pKi recorded for CCCNP(=O)(Oc1ccc(S(N)(=O)=O)cc1)c1ccccc1 (racemic)
a: 7.07

q: Report pKi, nothing else, for this compound: NS(=O)(=O)c1ccc(OP(=O)(c2ccccc2)N2CCOCC2)cc1 (racemic)
a: 7.36

---

biological target: Carbonic anhydrase 12 (Homo sapiens, UniProt O43570); test: Inhibition of human recombinant carbonic anhydrase 12 preincubated with enzyme for 1 hr prior to testing by phenol red-based stopped-flow CO2 hydration assay
Ki strictly under 40 nM means 1; at 40 nM or over means 0.

NS(=O)(=O)c1ccc(OP(=O)(Oc2ccc(S(N)(=O)=O)cc2)c2ccccc2)cc1	1
COCCOP(=O)(Oc1ccc(S(N)(=O)=O)cc1)c1ccccc1 (racemic)	1
NS(=O)(=O)c1ccc(OP(=O)(NCc2ccccc2)c2ccccc2)cc1 (racemic)	1
NS(=O)(=O)c1ccc(OP(=O)(c2ccccc2)N2CCOCC2)cc1 (racemic)	1
CCSP(=O)(Oc1ccc(S(N)(=O)=O)cc1)c1ccccc1 (racemic)	1

q: Regarding CCCNP(=O)(Oc1ccc(S(N)(=O)=O)cc1)c1ccccc1 (racemic) , kindly confirm whether its Ki is beneath 40 nM.
a: 1

q: Ki strictly < 40 nM for this molecule? CCCCCCCCCCCCSP(=O)(Oc1ccc(S(N)(=O)=O)cc1)c1ccccc1 (racemic)
a: 0

q: I wonder whether CC(C)OP(=O)(Oc1ccc(S(N)(=O)=O)cc1)c1ccccc1 (racemic) has Ki below 40 nM. Can you tell?
a: 0
